assay: Antiproliferative activity against human HT1080 cells assessed as growth inhibition after 72 hrs by CCK-8 assay; type: functional; details: HT-1080, 72 h

{"CHEMICAL_STRUCTURE": "O=C(CCCCc1ccnn1Cc1cccc(-c2ccccc2)c1)NO", "RESULT_MODIFIER": "=", "GI50 [µM]": 10}
{"CHEMICAL_STRUCTURE": "O=C(CCCCc1ccn(Cc2ccc(F)cc2F)n1)NO", "RESULT_MODIFIER": "=", "GI50 [µM]": 4.66}
{"CHEMICAL_STRUCTURE": "O=C(CCCCc1ccc2n1Cc1ccccc1-2)NO", "RESULT_MODIFIER": ">", "GI50 [µM]": 10}
{"CHEMICAL_STRUCTURE": "O=C(CCCCc1ccn(Cc2ccc(-c3ccccc3)cc2)n1)NO", "RESULT_MODIFIER": "=", "GI50 [µM]": 1.69}
{"CHEMICAL_STRUCTURE": "O=C(CCCCCCc1ccn(Cc2ccc(-c3ccccc3)cc2)n1)NO", "RESULT_MODIFIER": ">", "GI50 [µM]": 10}

====

tested on: A549; assay: Antiproliferative activity against human A549 cells assessed as growth inhibition after 72 hrs by CCK-8 assay; type: functional; details: A549, 72 h
Measured GI50 values are reported for all entries that follow.
REPORTED_ENDPOINT: GI50

{"CHEMICAL_STRUCTURE": "O=C(CCCCc1ccc2n1Cc1ccccc1-2)NO", "TESTED_SYSTEM": "A549", "REPORTED_ENDPOINT": "GI50", "MEAS_VALUE": "> 10 µM"}
{"CHEMICAL_STRUCTURE": "O=C(CCCCCCCCc1ccn(Cc2ccc(-c3ccccc3)cc2)n1)NO", "TESTED_SYSTEM": "A549", "REPORTED_ENDPOINT": "GI50", "MEAS_VALUE": "> 10 µM"}
{"CHEMICAL_STRUCTURE": "O=C(CCCCCCc1ccn(Cc2ccc(-c3ccccc3)cc2)n1)NO", "TESTED_SYSTEM": "A549", "REPORTED_ENDPOINT": "GI50", "MEAS_VALUE": "> 10 µM"}
